Target: Beta-2 adrenergic receptor (Homo sapiens, UniProt P07550)
Sequence (P07550 whole entry): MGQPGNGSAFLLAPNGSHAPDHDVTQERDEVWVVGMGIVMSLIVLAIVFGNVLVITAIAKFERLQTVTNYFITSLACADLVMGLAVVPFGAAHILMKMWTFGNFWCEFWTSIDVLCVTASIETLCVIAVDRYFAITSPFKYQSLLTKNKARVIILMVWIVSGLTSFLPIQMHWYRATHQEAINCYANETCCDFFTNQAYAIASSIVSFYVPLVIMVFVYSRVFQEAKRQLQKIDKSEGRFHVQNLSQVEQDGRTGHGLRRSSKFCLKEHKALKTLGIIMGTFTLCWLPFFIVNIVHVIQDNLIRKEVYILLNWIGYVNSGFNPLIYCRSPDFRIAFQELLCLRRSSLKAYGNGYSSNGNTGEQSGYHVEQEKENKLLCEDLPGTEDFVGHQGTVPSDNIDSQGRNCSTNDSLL
Assay: Agonist activity at human beta2 adrenergic receptor expressed in HEK293 cells assessed as increase in cAMP accumulation after 60 mins by HTRF assay
Format: functional, cell-based
Conditions: read-out: pEC50 (converted)
measured.endpoint: EC50 (nM)
Number in nM, nothing else.

The compound listed as O=c1ccc2c(C(CO)NCCc3ccccc3)ccc(O)c2[nH]1 (stereo not given) shows EC50 equal to 1.58

The compound listed as CCCCC(=O)Nc1ccc(CCNC(CO)c2ccc(O)c3[nH]c(=O)ccc23)cc1 (stereo not given) shows EC50 equal to 316

The compound listed as COc1ccc(CCNC(CO)c2ccc(O)c3[nH]c(=O)ccc23)cc1 (stereo not given) shows EC50 equal to 20

The compound listed as O=c1ccc2c(C(CO)NCCc3ccc(Cl)cc3)ccc(O)c2[nH]1 (stereo not given) shows EC50 equal to 39.8

The compound listed as CC(C)CC(=O)Nc1ccc(CCNC(CO)c2ccc(O)c3[nH]c(=O)ccc23)cc1 (stereo not given) shows EC50 equal to 631
